# Test system: MESSA
# Procedure Text: Alamar blue cytotoxicity assay MESSA
# Type: cell-based
# Condition Info: Homo sapiens, MES-SA; 72 hours; read-out: cellular cytotoxicity IC50 MESSA

>  <Compound>
CC[C@H](Nc1nc(NCc2cnc(C)cc2C)c2ncn(C(C)C)c2n1)[C@@H](C)O [Compound [1]]

>  <IC50>
160 nM

$$$$

###

# Experimental Target: CDK2/cyclin A (Homo sapiens (Human))
# Procedure Text: In-vitro recombinant kinase assay CDK2/cyclin A
# Assay type: biochemical
# Condition Info: Table 4, mean of two runs; read-out: CDK2A Mean
pIC50: −log10 of the molar value.

>  <Molecule>
CCC(Nc1nc(NCc2ccc(C(F)(F)F)nc2)c2ncn(C(C)C)c2n1)C(O)C(F)(F)F (stereo not shown) [[17]]

>  <pIC50>
6.43

$$$$
